molecular target: T1, CD3 epsilon homodimer protein (UniProt P07766 23-126); assay: SPR, antibody over immobilised CD3e homodimer;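 also: SPR at 25 °C with CD3 epsilon homodimer amine-coupled to a CM4 sensor chip and antibody flowed over as analyte in HBS-EP+ running buffer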
T1 construct: also called CD3 (CD3 epsilon)
T1 sequence (P07766 23-126): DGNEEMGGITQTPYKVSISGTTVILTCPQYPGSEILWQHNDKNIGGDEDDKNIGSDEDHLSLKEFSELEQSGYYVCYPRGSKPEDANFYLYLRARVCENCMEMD
Please respond with reported KD ratio to GLS3000 for every item in the list.
Field format: numeric only.

Quick one: KD ratio to GLS3000 for CE115HA000/GLS3000 V94N (antibody, IgG1, name in Kabat numbering, V domains shown, one-arm IgG1) VH: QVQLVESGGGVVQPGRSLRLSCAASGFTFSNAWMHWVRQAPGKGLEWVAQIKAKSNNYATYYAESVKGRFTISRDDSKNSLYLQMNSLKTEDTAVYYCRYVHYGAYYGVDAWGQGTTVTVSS VL: DIVMTQSPLSLPVTPGEPASISCRSSQSLVHSNRNTYLHWYQQKPGQAPRLLIYKVSNRFSGVPDRFSGSGSGTDFTLKISRVEAEDVGVYYCGQGTQNPYTFGQGTKLEIK ?
0.96

Quick one: KD ratio to GLS3000 for CE115HA000/GLS3000 S26E (antibody, IgG1, name in Kabat numbering, V domains shown, one-arm IgG1) VH: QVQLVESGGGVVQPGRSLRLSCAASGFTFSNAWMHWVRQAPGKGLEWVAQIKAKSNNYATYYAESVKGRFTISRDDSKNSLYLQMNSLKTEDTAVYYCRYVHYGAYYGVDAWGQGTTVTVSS VL: DIVMTQSPLSLPVTPGEPASISCRSEQSLVHSNRNTYLHWYQQKPGQAPRLLIYKVSNRFSGVPDRFSGSGSGTDFTLKISRVEAEDVGVYYCGQGTQVPYTFGQGTKLEIK ?
0.9

Quick one: KD ratio to GLS3000 for CE115HA000/GLS3000 N28F (antibody, IgG1, name in Kabat numbering, V domains shown, one-arm IgG1) VH: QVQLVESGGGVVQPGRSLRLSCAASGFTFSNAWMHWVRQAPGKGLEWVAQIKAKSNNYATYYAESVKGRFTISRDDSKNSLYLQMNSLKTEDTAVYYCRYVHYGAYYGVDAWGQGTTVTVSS VL: DIVMTQSPLSLPVTPGEPASISCRSSQSLVHSFRNTYLHWYQQKPGQAPRLLIYKVSNRFSGVPDRFSGSGSGTDFTLKISRVEAEDVGVYYCGQGTQVPYTFGQGTKLEIK ?
2.59

Quick one: KD ratio to GLS3000 for CE115HA000/GLS3000 P95G (antibody, IgG1, name in Kabat numbering, V domains shown, one-arm IgG1) VH: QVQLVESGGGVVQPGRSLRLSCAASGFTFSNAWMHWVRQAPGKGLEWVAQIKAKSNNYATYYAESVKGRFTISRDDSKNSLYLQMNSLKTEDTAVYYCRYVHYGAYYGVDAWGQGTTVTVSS VL: DIVMTQSPLSLPVTPGEPASISCRSSQSLVHSNRNTYLHWYQQKPGQAPRLLIYKVSNRFSGVPDRFSGSGSGTDFTLKISRVEAEDVGVYYCGQGTQVGYTFGQGTKLEIK ?
1.94

Quick one: KD ratio to GLS3000 for CE115HA000/GLS3000 S52Q (antibody, IgG1, name in Kabat numbering, V domains shown, one-arm IgG1) VH: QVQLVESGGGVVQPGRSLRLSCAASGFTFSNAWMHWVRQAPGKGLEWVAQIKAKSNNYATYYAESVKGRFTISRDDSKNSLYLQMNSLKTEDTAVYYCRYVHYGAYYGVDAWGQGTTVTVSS VL: DIVMTQSPLSLPVTPGEPASISCRSSQSLVHSNRNTYLHWYQQKPGQAPRLLIYKVQNRFSGVPDRFSGSGSGTDFTLKISRVEAEDVGVYYCGQGTQVPYTFGQGTKLEIK ?
1.01

Value source: patent US20210388087A1
